System: OVCAR-4
Test: NCI tumour cell line growth inhibition, 48 h
Activity calls are given as the source filed them. Rule as the data show it: active = GI50 up to about 1.1 µM and inactive = higher.
Outcomes you can answer with include only these: active, inactive

Task: Per the assay record, what outcome was assigned to O=c1c2cc([N+](=O)[O-])ccc2n2n1Cc1ccccc1CC2 ?
Output: inactive

Task: Per the assay record, what outcome was assigned to CCCCCCCCCC[C@@H](O)[C@@H]1CC[C@H]([C@H]2CC[C@@H]([C@@H](O)CCCCCCCCCC[C@H]3CC(CC(C)=O)C(=O)O3)O2)O1 (some centres undefined) ?
Output: active

Task: Per the assay record, what outcome was assigned to C/C(=N/NC(N)=S)C(CN(C)C)C(C1=C(O)c2ccccc2OC1)c1ccccc1 (centres undefined) ?
Output: inactive

Task: Per the assay record, what outcome was assigned to CN(CCN1CCCC1)C1CCc2cc(Cl)c(Cl)cc2C1 (centres undefined) ?
Output: inactive

Task: Per the assay record, what outcome was assigned to COC(=O)CCC(=O)NC1=C(Nc2ccc(OC)cc2)C(=O)c2ccccc2C1=O ?
Output: inactive

Task: Per the assay record, what outcome was assigned to CC[C@@]1(O)C(=O)OCc2c1cc1n(c2=O)Cc2c-1nc1ccccc1c2/C=N\NC(=O)C1CCCN1 (some centres undefined) ?
Output: inactive

---

Test system: HCT-15
GI50: recorded values
State just the number; it will be interpreted in µM.

Worked examples, 6 compounds total:
- compound: "COc1ccc(C[C@@H]2NC[C@@H](O)[C@@H]2OC(C)=O)cc1"
  GI50, µM: 0.0171
- compound: "CCCCN1C(=O)c2c(Br)sc(Br)c2C1=O"
  GI50, µM: 25.7
- compound: "CCCCCCCCCc1cc(=O)c2c(O)cc(O)cc2o1"
  GI50, µM: 18.8
- compound: "COC(=O)CCC(=O)NC1=C(Nc2ccc(OC)cc2)C(=O)c2ccccc2C1=O"
  GI50, µM: 7.18
- compound: "N#CC(C#N)=C/C=C/c1c(Cl)cccc1Cl"
  GI50, µM: 1.91
- compound: "CC1=NN(c2nc(N)nc(/C(C#N)=C\\c3csc([N+](=O)[O-])c3)n2)C(C)(C)C1"
  GI50, µM: 81.3

Data point: O=C(NNC(=S)NCc1ccccc1)c1csc(NC(=S)NC2CCCCC2)n1 ; GI50 = 37.5

Data point: CCCCCCCCCCCCCCCCCCOC(COP(=O)(O)OCC1OC(n2cc(F)c(=O)[nH]c2=O)CC1O)COP(=O)(O)OCC1OC(n2ccc(N)nc2=O)C(O)C1O (configuration not stated) ; GI50 = 31.4

Data point: COC(c1ccsc1)C(C#N)(C#N)/N=C/c1ccsc1 (configuration not stated) ; GI50 = 13

Data point: N#Cc1c(N)nc(Nc2cccc3ccccc23)c(C#N)c1C#N ; GI50 = 4.17

---

GI50: recorded values
Test system: TK-10
Test: NCI tumour cell line growth inhibition, 48 h
Active and inactive are the calls of the source. Cut-off read from the data, not from the text of the source: active = GI50 up to about 1.1 µM and inactive = higher. Where a SMILES comes first, the peptide text is derived from it. The star is where a group is joined. Boc = CC(C)(C)OC(=O)*; OBn = c1ccc(CO*)cc1

Worked examples, 10 compounds total:
- compound: "CC(Nc1ccc(Cl)cc1)c1ccncc1 (stereo unspecified)"
  assayValue: "> 100 µM (inactive)"
- compound: "CC(C)CC(NC(=O)OC(C)(C)C)C(=O)N1CCCC1C(=O)OCc1ccccc1 (stereo not drawn) (Boc-Leu-Pro-OBn; configuration not given here)"
  assayValue: "> 100 µM (inactive)"
- compound: "CC(=O)/C(=C\\Nc1c(C)n(C)n(C)c1=O)C(=O)c1ccccc1"
  assayValue: "> 50 µM (inactive)"
- compound: "CCOC(=O)N(c1ccccc1)c1cc(=O)n2ccccc2n1"
  assayValue: "> 100 µM (inactive)"
- compound: "COC(=O)c1ccc(/N=N/N(C)COc2ccc(C#N)cc2)cc1"
  assayValue: "> 100 µM (inactive)"
- compound: "O=C(/C=C1/Nc2ccc([N+](=O)[O-])cc2N/C1=C/C(=O)c1ccccc1)c1ccccc1"
  assayValue: "24.9 µM (inactive)"
- compound: "CCCC1=C(OC)C(=O)c2c(C)cc(Cl)nc2C1=O"
  assayValue: "19.9 µM (inactive)"
- compound: "CC1(C)C2CCC(N)(C2)C1O (stereo unspecified)"
  assayValue: "> 100 µM (inactive)"
- compound: "CCCC(=O)Nc1ccc(O)c2c1C1CCCCCC21 (stereo unspecified)"
  assayValue: "> 100 µM (inactive)"
- compound: "C=CCN1C(=O)C(=O)N(CC=C)C(=O)C1=O"
  assayValue: "> 100 µM (inactive)"

Now consider the entry below.
Data point: CSc1cnn(CCC#N)c(=O)n1 ; GI50 = > 100 µM (inactive)

---

Tested on: NCI-H23
Assay: NCI tumour cell line growth inhibition, 48 h
The source made the active and inactive calls. Rule as the data show it: active = GI50 up to about 1.1 µM and inactive = higher.
valueKind: GI50

- molecule: "NC(N)=NC(P(=O)(O)O)P(=O)(O)O"
  valueKind: "GI50"
  assayValue: "> 100 µM (inactive)"
- molecule: "C[N+](C)(C)CC1CCCCC1=O (stereo unspecified)"
  valueKind: "GI50"
  assayValue: "22.5 µM (inactive)"
- molecule: "CC(C)OP(=O)(OC(C)C)/C(=N/Nc1ccc([N+](=O)[O-])cc1)Nc1ccc(N/C(=N\\Nc2ccc([N+](=O)[O-])cc2)P(=O)(OC(C)C)OC(C)C)cc1"
  valueKind: "GI50"
  assayValue: "13.7 µM (inactive)"
- molecule: "CC(C(N)=O)N(C)C(=O)c1cnc2ccccc2c1 (stereo unspecified)"
  valueKind: "GI50"
  assayValue: "> 10 µM (inactive)"

Form: item CCCCCCCCCc1cc(=O)c2c(O)cc(O)cc2o1 ; test system NCI-H23; GI50: 18.5 µM (inactive)

Form: item Cc1ccc(S(=O)(=O)OC2CCN(C)CC2)cc1 ; test system NCI-H23; GI50: 33.7 µM (inactive)

Form: item O=C(/C=C1/Nc2ccc([N+](=O)[O-])cc2N/C1=C/C(=O)c1ccccc1)c1ccccc1 ; test system NCI-H23; GI50: 12.4 µM (inactive)

Form: item CCOC(=O)CCC(NC(=O)Cc1ccc(Oc2nc3ccccc3nc2-c2ccccc2)cc1)C(=O)OCC (stereo unspecified) ; test system NCI-H23; GI50: > 100 µM (inactive)

Form: item O=c1nc(N2CCCCC2)sc2[nH]c3ccccc3c12 ; test system NCI-H23; GI50: 12.2 µM (inactive)

Form: item COCOc1cc(OC)c(Br)cc1C/C(=N/O)C(=O)OC ; test system NCI-H23; GI50: 90.4 µM (inactive)

Form: item c1csc(-c2csc(-c3cccs3)c2)c1 ; test system NCI-H23; GI50: 24.3 µM (inactive)

---

Tested on: SF-295
Experiment: NCI tumour cell line growth inhibition, 48 h
Calls of active or inactive are those of the source. No stated cut-off is given here; in the data, active = GI50 up to about 1.1 µM and inactive = higher.
valueKind: GI50

Worked examples, 9 compounds total:
- compound: "CC(/C=N/N=C1NCCCCN1)=N\\N=C1NCCCCN1"
  GI50: "47.2 µM (inactive)"
- compound: "O=C(CP(=O)(c1ccccc1)c1ccccc1)c1cccc(C(=O)CP(=O)(c2ccccc2)c2ccccc2)c1"
  GI50: "14.6 µM (inactive)"
- compound: "CC(=O)Oc1cc(S(=O)(=O)Nc2nc(N)n[nH]2)c(S)cc1Cl"
  GI50: "> 100 µM (inactive)"
- compound: "CCC(C)N1CN(c2ccccc2)C2(CCN(CCCC(=O)c3ccc(F)cc3)CC2)C1=O (stereo not given)"
  GI50: "4.55 µM (inactive)"
- compound: "O=C(O)/C=C/C=C/c1ccc2c(c1)OCO2"
  GI50: "> 100 µM (inactive)"
- compound: "CCCC(=O)C(CC)/C(CCC(=O)N(Cc1ccccc1)Cc1ccccc1)=N/NC(=O)C[N+](C)(C)C (stereo not given)"
  GI50: "> 100 µM (inactive)"
- compound: "N=c1c2ccccc2sc2nc3ccccc3n12"
  GI50: "> 100 µM (inactive)"
- compound: "C/C(=N\\NC(=S)N1CCCCC1)c1cccc(C)n1"
  GI50: "0.056 µM (active)"
- compound: "CC(C)CC(NC(=O)C(C)(CI)Cc1ccccc1)C(=O)Nc1ccccc1 (stereo not given)"
  GI50: "> 100 µM (inactive)"

Data point: CN(/N=C/C=N/N(C)C1=NCCN1)C1=NCCN1 ; GI50 = > 100 µM (inactive)

---

Tested on: HOP-92
Experiment: NCI tumour cell line growth inhibition, 48 h
The source made the active and inactive calls. Rule as the data show it: active = GI50 up to about 1.1 µM and inactive = higher.
GI50: recorded values

Worked examples, 4 molecules total:
- molecule: "CSC1=C(C#N)C(=O)N(c2ccc(Cl)cc2)C(=O)C1C#N (stereo not given)"
  valueKind: "GI50"
  assayValue: "28.9 µM (inactive)"
- molecule: "COC(=O)CCC(C)[C@H]1CCC2C3CC[C@@H]4CC5(CC[C@]4(C)C3C[C@H](OC(C)=O)[C@@]21C)OOC1(CCCCC1)OO5 (stereo not given in full)"
  valueKind: "GI50"
  assayValue: "46.6 µM (inactive)"
- molecule: "CCCC[S+]([O-])CCC(N)P(=O)(O)O (stereo not given)"
  valueKind: "GI50"
  assayValue: "> 100 µM (inactive)"
- molecule: "O=C(c1c(Cl)cc(Cl)cc1Cl)N(Cc1cccnc1)C(=S)N(Cc1cccnc1)C(=O)c1c(Cl)cc(Cl)cc1Cl"
  valueKind: "GI50"
  assayValue: "3.25 µM (inactive)"

Data point: CC1(C)C2CCC(N)(C2)C1O (stereo not given) ; GI50 = > 100 µM (inactive)

Data point: CC(N)Cc1cccc(C(F)(F)F)c1 (stereo not given) ; GI50 = > 100 µM (inactive)

Data point: CC(=O)C1=C(N=[N+]=[N-])c2cccc3cccc(c23)C1=O ; GI50 = 21.7 µM (inactive)

Data point: CC(=O)O[C@H]1C(=O)[C@@]2(C)C(C(OC(=O)c3ccccc3)[C@]3(O)CC(OC(=O)C(O)C(NC(=O)c4ccccc4)c4ccc(F)cc4)C(C)=C1C3(C)C)[C@]1(OC(C)=O)CO[C@@H]1C[C@@H]2O (stereo not given in full) ; GI50 = 3.43 µM (inactive)

Data point: Cc1ccc(C(=O)N/N=C(\N=N\c2ccc(C(=O)O)cc2)c2ccc(N(CCC#N)CCC#N)cc2C)cc1 ; GI50 = > 100 µM (inactive)

Data point: N#CCCN(CCC#N)c1ccc(C(=N/c2ccc(Cl)cc2)/N=N/c2ccc(Cl)cc2)cc1 ; GI50 = 19.2 µM (inactive)

Data point: Cc1ccc(NC(=O)C(=O)C(C2C(C)CC(=O)C2CC(=O)O)[N+](=O)[O-])cc1 (stereo not given) ; GI50 = > 100 µM (inactive)

Data point: CCC(C)(O)c1cn(-c2ccc(S(=O)(=O)O)cc2)nn1 (stereo not given) ; GI50 = > 100 µM (inactive)

Data point: O=C(O)CCc1c2ccc(=O)c(O)c-2oc2c(O)c(O)ccc12 ; GI50 = > 100 µM (inactive)

Data point: COc1cc2ccnc([C@@H](OC(=O)c3ccccc3)c3ccc(OC)c(OC)c3OC)c2cc1OC ; GI50 = 23.3 µM (inactive)

Data point: Cn1c(C2CCCc3c2c2ccccc2n3C)cc2ccccc21 (stereo not given) ; GI50 = 1.5 µM (inactive)

Data point: Nc1nc(=O)c2c([nH]1)NCC(CNc1ccc(C(=O)N[C@@H](CCC(=O)O)C(=O)O)cc1)N2C=O (stereo not given in full) ; GI50 = > 125 µM (inactive)

Data point: COc1cc(NC(C)CCCN)c2nccc(C)c2c1 (stereo not given) ; GI50 = 24.9 µM (inactive)

Data point: C1COCCN1.CN(C)c1ccc(-c2c(C#N)c(N)nc(S)c2C#N)cc1 ; GI50 = 21.8 µM (inactive)

Data point: CCCCCCCCCc1cc(=O)c2c(O)cc(O)cc2o1 ; GI50 = 16.3 µM (inactive)

Data point: NC(=O)SCC(=O)Nc1ccc2ncccc2c1 ; GI50 = 35.2 µM (inactive)
